biological target: hT1R2/hT1R3 sweet receptor expressed in HEK293 cell line (Homo sapiens, UniProt Q7RTX0+Q8TE23); construct: expressed in transfected cells; host or cells: HEK293 derivative stably expressing Gα15 and hT1R2/hT1R3, clone S-9; assay: In vitro hT1R2/hT1R3-HEK293 taste receptor activation assay (FLIPR); format: cell-based; settings: read-out: EC50 for activation of a hT1R2/hT1R3 sweet receptor expressed in HEK293 cell line
Sequence (Q8TE23 20-839): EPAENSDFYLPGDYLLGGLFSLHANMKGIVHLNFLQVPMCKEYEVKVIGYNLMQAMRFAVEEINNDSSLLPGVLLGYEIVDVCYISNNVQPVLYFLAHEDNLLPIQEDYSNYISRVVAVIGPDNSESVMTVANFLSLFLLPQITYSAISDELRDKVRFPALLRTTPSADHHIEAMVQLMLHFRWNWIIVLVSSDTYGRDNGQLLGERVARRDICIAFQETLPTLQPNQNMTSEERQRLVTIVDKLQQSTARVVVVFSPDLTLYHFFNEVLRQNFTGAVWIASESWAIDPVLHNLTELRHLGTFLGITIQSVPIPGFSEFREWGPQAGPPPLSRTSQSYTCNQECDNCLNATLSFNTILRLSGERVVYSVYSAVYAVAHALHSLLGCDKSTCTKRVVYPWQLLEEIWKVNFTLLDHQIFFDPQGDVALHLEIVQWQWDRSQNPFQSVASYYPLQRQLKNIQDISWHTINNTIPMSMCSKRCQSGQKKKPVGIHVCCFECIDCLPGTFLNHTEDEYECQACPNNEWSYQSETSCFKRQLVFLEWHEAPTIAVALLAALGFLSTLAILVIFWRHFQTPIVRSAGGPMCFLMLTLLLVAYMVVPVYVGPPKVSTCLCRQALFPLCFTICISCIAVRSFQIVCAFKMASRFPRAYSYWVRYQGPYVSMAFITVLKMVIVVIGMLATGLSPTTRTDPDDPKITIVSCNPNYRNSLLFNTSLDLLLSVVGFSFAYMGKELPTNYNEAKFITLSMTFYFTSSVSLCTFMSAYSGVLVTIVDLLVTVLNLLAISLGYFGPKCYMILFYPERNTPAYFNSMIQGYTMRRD
Sequence (Q7RTX0 21-852): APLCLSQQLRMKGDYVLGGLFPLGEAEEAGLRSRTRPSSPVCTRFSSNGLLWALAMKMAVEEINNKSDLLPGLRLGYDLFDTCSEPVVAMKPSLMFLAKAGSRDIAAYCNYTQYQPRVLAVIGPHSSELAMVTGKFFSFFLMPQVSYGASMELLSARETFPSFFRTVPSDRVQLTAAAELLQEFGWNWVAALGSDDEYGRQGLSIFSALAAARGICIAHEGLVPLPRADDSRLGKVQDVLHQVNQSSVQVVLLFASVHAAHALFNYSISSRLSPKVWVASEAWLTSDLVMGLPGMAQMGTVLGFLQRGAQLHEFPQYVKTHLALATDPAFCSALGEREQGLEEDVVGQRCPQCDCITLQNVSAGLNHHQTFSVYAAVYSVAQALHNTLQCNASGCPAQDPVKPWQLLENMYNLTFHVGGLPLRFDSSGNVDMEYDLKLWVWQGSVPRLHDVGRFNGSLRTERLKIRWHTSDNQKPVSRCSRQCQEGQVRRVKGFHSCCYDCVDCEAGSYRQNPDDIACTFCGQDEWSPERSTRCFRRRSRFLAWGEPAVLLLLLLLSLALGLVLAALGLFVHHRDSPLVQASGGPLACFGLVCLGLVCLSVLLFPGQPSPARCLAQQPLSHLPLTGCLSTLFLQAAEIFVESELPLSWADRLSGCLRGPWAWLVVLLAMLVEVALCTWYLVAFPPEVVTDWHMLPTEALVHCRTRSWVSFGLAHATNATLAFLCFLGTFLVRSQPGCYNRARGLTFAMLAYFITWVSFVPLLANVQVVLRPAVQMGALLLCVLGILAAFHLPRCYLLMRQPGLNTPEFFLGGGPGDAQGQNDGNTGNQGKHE

compound	EC50, nM
Cc1cc(C(C)(C)C(=O)NCC(C)C)ccc1-c1ccccc1	1420
CC(C)CNC(=O)C(C)(C)c1ccc(-c2ccsc2)cc1	1240
CC(C)CNC(=O)C(C)(C)c1ccc(-c2cccn2C)cc1	960
CC(C)CNC(=O)C(NC(=O)OC(C)(C)C)c1ccc(-c2ccccc2)cc1 (stereo not drawn)	7540
CC(C)CNC(=O)C(C)(C)c1ccc(-c2cncc(C#N)c2)nc1	2190
COCc1cncc(-c2ccc(C(C)(C)C(=O)NCC(C)C)cc2)n1	260
CC(C)CNC(=O)C(C)(C)c1ccc(-c2ccccc2CO)cc1	1050
CCOC(=O)c1cccc(-c2ccc(C(C)(C)C(=O)NCC(C)C)cc2)c1	2600
CC(C(=O)NCc1ccco1)c1ccc(-c2ccccc2)c(F)c1 (stereo not drawn)	4550
